- target-or-system: human Nav1.7 (hNav1.7) (Homo sapiens, UniProt Q15858)
- Construct: expressed in transfected cells
- Sequence (Q15858 whole entry): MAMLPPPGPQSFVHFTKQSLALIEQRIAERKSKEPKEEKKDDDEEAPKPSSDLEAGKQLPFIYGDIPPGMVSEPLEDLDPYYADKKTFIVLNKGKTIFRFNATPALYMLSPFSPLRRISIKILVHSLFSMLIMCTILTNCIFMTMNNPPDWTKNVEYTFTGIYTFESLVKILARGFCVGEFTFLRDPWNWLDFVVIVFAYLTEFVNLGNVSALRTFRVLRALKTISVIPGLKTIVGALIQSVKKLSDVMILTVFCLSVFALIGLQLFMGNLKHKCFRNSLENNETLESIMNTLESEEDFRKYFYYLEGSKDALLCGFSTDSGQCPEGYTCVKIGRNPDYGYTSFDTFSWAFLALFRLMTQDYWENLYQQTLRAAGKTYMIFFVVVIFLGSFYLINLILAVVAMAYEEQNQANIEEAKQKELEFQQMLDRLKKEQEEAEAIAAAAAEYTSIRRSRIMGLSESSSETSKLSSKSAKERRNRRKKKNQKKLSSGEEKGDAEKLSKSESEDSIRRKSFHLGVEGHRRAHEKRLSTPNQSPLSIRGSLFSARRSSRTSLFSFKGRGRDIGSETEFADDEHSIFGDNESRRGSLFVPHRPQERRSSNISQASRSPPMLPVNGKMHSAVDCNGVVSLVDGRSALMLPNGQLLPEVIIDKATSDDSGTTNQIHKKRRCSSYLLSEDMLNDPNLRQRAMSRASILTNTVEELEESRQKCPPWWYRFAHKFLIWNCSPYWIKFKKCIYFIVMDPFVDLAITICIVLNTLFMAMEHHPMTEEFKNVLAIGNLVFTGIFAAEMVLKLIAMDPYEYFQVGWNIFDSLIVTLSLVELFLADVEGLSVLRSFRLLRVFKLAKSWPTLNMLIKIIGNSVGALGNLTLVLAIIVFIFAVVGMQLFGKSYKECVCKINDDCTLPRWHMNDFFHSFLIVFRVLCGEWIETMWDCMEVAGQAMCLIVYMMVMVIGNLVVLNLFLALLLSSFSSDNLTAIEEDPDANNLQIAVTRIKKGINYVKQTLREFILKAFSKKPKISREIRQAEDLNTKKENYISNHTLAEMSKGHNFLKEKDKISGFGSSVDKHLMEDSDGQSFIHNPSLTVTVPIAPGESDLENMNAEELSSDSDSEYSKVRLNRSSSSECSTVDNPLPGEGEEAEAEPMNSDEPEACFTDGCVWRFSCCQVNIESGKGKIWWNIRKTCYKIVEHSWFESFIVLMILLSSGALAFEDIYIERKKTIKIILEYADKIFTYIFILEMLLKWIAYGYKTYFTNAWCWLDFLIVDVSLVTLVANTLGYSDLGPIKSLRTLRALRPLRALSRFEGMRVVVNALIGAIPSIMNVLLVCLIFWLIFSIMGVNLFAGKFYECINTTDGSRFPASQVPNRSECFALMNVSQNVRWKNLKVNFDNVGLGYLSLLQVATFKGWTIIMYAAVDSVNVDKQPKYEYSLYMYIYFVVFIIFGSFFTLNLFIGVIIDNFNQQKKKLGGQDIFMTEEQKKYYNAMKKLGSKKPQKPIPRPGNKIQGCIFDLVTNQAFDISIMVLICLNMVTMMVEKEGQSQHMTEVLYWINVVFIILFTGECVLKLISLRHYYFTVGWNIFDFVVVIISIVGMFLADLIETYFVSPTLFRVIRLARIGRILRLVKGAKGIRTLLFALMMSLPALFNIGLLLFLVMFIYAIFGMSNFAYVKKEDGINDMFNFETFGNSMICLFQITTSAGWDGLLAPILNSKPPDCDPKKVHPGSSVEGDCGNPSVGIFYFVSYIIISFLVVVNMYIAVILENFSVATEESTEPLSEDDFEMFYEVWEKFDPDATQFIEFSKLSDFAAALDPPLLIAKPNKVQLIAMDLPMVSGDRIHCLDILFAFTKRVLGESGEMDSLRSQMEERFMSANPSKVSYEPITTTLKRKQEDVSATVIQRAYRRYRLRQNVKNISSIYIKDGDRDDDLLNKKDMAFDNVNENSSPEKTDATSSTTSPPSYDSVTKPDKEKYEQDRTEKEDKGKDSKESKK
- Sequence (Q07699 19-218 partner): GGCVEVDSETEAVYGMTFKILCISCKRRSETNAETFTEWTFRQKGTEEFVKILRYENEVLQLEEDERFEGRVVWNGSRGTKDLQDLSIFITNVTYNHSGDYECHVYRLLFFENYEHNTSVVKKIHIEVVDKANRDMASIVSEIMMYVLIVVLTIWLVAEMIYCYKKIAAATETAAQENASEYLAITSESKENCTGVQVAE
- procedure-text: hNav1.7 slow inactivation block, manual patchclamp
- Type: cell-based
- assay-setup: HEK 293F cells stably expressing hNav1.7, slow inactivation induced in approximately 50% of channels
We label by threshold. Values of IC50 strictly beneath 2000 nM are T. Values of 2000 nM and up are F.

These solved cases illustrate the format of a correct answer.
# molecule, class-label
measured = [
    ("O=C(Nc1nncs1)c1cc(F)c(Oc2cc(C(F)(F)F)cc(C(F)(F)F)c2)cc1F", "F"),
    ("CN1CCC[C@H]1C(=O)NCc1cccc(-c2cc(C(F)(F)F)cc(C(F)(F)F)c2)c1", "T"),
    ("N#Cc1cc(S(=O)(=O)Nc2ncns2)ccc1Oc1cc(C(F)(F)F)cc(C(F)(F)F)c1", "F"),
    ("O=S(=O)(Nc1ncns1)c1cc(F)c(Oc2cc(N3CCC3)cc(C(F)(F)F)c2)cc1F", "T"),
    ("O=S(=O)(Nc1ncns1)c1ccc(Oc2cc(C(F)(F)F)cc(C(F)(F)F)c2)c(F)c1", "F"),
    ("N#Cc1cc(Oc2cc(C(F)(F)F)cc(C(F)(F)F)c2)ccc1S(=O)(=O)Nc1nncs1", "F"),
]

Proceed to the following item.
Bench note: check whether "CN(Cc1cccc(-c2cc(C(F)(F)F)cc(C(F)(F)F)c2)c1)C(=O)[C@@H]1CCCN1" shows IC50 below 2000 nM
T

These data points were gathered from patent US11236078B2.
